All values here come from paper PMC12251151.

biological target: pancreatic lipase (PL) (Sus scrofa); construct: lipase (porcine pancreas); purchased Shanghai Yuanye Co., Ltd., Shanghai, China; host or cells: porcine pancreas; test: FT-IR spectroscopy secondary structure analysis of PL-porphyrin complex; parameters: species or system porcine; details: PL:porphyrin molar ratio 1:2; PL alone 27.31 ± 0.06
measured.quantity: β-Sheet of PL in complex (%)
Numbers only, in %.

Solved entries:
O=C(O)c1ccc(-c2c3nc(c(-c4ccc(C(=O)O)cc4)c4ccc([nH]4)c(-c4ccc(C(=O)O)cc4)c4nc(c(-c5ccc(C(=O)O)cc5)c5ccc2[nH]5)C=C4)C=C3)cc1 [TCPP, meso-Tetra (4-carboxyphenyl) porphine]	37.79
Oc1ccc(-c2c3nc(c(-c4ccc(O)cc4)c4ccc([nH]4)c(-c4ccc(O)cc4)c4nc(c(-c5ccc(O)cc5)c5ccc2[nH]5)C=C4)C=C3)cc1 [THPP]	37.64
O=C([O-])c1ccc(C2=C3C=CC(=N3)C(c3ccc(C(=O)[O-])cc3)=C3C=CC(=N3)C(=c3ccc(=C([O-])[O-])cc3)c3ccc([n-]3)C(c3ccc(C(=O)[O-])cc3)=C3C=CC2=N3)cc1.[67Cu+2].[H+].[H+].[H+].[H+] [Cu-TCPP]	46.44

// β-Sheet of PL in complex value for Nc1ccc(-c2c3nc(c(-c4ccc(N)cc4)c4ccc([nH]4)c(-c4ccc(N)cc4)c4nc(c(-c5ccc(N)cc5)c5ccc2[nH]5)C=C4)C=C3)cc1 [TAPP] : 36.59

----------
Provide the reported Ksv (fluorescence quenching constant) of each item.
Target: pancreatic lipase (PL) (Sus scrofa)
Construct: lipase (porcine pancreas); purchased Shanghai Yuanye Co., Ltd., Shanghai, China; host or cells: porcine pancreas
Sequence (P00591 1-450): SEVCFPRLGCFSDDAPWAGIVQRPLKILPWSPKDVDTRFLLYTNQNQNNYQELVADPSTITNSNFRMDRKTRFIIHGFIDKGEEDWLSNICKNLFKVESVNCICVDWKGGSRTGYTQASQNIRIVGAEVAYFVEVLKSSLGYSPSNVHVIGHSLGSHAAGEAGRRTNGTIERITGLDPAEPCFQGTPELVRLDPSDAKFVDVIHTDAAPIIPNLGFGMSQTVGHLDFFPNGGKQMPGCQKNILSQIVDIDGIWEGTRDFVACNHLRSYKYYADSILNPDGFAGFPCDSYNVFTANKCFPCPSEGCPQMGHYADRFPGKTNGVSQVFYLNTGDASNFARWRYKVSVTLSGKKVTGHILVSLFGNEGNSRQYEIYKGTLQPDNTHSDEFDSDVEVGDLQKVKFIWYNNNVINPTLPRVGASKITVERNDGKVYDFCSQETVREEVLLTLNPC
Assay: Fluorescence quenching and binding interaction with PL (Stern-Volmer, double logarithmic, Van't Hoff)
Set-up: species or system porcine
Details: T 298 K

O=C(O)c1ccc(-c2c3nc(c(-c4ccc(C(=O)O)cc4)c4ccc([nH]4)c(-c4ccc(C(=O)O)cc4)c4nc(c(-c5ccc(C(=O)O)cc5)c5ccc2[nH]5)C=C4)C=C3)cc1	4.60 ± 0.07 ×10^4 L/mol

Hi! Can you tell me Ksv (fluorescence quenching constant) for each of these compounds?
1. Oc1ccc(-c2c3nc(c(-c4ccc(O)cc4)c4ccc([nH]4)c(-c4ccc(O)cc4)c4nc(c(-c5ccc(O)cc5)c5ccc2[nH]5)C=C4)C=C3)cc1
2. O=C([O-])c1ccc(C2=C3C=CC(=N3)C(c3ccc(C(=O)[O-])cc3)=C3C=CC(=N3)C(=c3ccc(=C([O-])[O-])cc3)c3ccc([n-]3)C(c3ccc(C(=O)[O-])cc3)=C3C=CC2=N3)cc1.[67Cu+2].[H+].[H+].[H+].[H+]
3. Nc1ccc(-c2c3nc(c(-c4ccc(N)cc4)c4ccc([nH]4)c(-c4ccc(N)cc4)c4nc(c(-c5ccc(N)cc5)c5ccc2[nH]5)C=C4)C=C3)cc1

Reply text:
1. 1.36 ± 0.02 ×10^4 L/mol
2. 2.36 ± 0.01 ×10^4 L/mol
3. 9.70 ± 0.11 ×10^4 L/mol
